Give EC50 (nM), bispecific killing (FIG. 15) for every item shown.
- Target desc: T1, canine CD20 on cells (HEK293, MDCK II, CLBL-1 or native B cells) (canine, UniProt Q3C2E2 1-297)
- T1 chain: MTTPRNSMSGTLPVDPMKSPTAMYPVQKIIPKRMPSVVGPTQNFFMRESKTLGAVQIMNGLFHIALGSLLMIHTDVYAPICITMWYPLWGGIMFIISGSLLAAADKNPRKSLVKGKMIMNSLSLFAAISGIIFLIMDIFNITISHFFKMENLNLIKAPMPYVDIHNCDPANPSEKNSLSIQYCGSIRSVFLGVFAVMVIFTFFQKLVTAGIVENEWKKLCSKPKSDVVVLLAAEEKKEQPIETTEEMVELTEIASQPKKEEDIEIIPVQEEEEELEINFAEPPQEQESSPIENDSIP
- Test description: cell-based or functional assay
One number for each entry, in nM.

Binder	Readout unit	EC50 (nM), bispecific killing (FIG. 15)
PMX172VH/PMX234VH/PMX172VL (bispecific antibody, V domains shown) VH 1: EVQLVESGGDLVKPGGSLRLSCVASGFTFSSYHMSWVRQAPGKGLQWVAYSNSGGSRTSYADAVKGRFTISRDNAKNTLYLQMNSLRAEDTAVYYCASEGGGGRYGYKDYGMDYWGHGTSLFVSS VH 2: ELQLVESGGDLVKPGGSLRLSCVASGFTFSRYYLNWVRQAPGKGLQWVAFITSGGSSTNYADAVKGRFTISRDNAKNTLYLQMNSLRAEDTAVYYCTSFDSWGQGTLVTVSS VL: SYVLTQLPSKNVTLKQPAHITCGGDNIGSKSVHWYQQKLGQAPVLIIYYDSSRPTGIPERFSGANSGNTATLTISGALAEDEADYYCQVWDSSAKAWVFGEGTQLTVL	nM	0.412

Kindly review the next binder as well.
## Task Please look up its EC50 (nM), bispecific killing (FIG. 15): PMX172VH/PMX235VH/PMX172VL (bispecific antibody, V domains shown) VH 1: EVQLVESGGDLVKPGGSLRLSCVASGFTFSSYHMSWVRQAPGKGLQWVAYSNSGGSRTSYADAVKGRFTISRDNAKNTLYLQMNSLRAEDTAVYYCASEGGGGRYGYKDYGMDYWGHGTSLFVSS VH 2: EVQLVESGGDLVKPGGSLRLSCVASGITFSRYYMNWVRQAPGKGLQWVAYINTGESSTIYSDAVKGRFTISRDNAKNTLYLQMNSLRAEDTAVYYCTTLEYWGQGTLVTVSS VL: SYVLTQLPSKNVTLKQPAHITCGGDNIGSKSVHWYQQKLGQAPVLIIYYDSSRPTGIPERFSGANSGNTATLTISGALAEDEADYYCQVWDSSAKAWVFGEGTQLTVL
## Result 0.445
